Data provenance is PubChem BioAssay (NCI).

- Test system: MDA-MB-435 melanoma
- assay_details: NCI-60 one-dose screen, 48 h (100 = growth as untreated, 0 = no growth, -100 = all killed)
- conditions: 10 µM unless noted
The panel holds about 83,000 compounds, 20% with a hit somewhere; the sample as a whole holds those more often.
Record Satisfied whenever growth is at 30% or higher; record Not satisfied when lower.

>>> print(df.to_string())
                                   molecule        tested_system          label
0  O=C(Nc1ccccc1O)c1ccc(CNC(=O)c2sccc2Nc2ccnc(C(F)(F)F)c2)cc1  MDA-MB-435 melanoma      Satisfied
1  Cn1cc(-c2csc(-c3c[nH]c4ccccc34)n2)c2cnccc21  MDA-MB-435 melanoma  Not satisfied
2  CC(C)(Sc1cc(C(C)(C)C)c(OC(=O)CCCC(=O)O)c(C(C)(C)C)c1)Sc1cc(C(C)(C)C)c(OC(=O)CCCC(=O)O)c(C(C)(C)C)c1  MDA-MB-435 melanoma  Not satisfied
3  COc1cc2c(cc1OC)C(C)N(S(N)(=O)=O)CC2 (stereo unspecified)  MDA-MB-435 melanoma      Satisfied
4  COCCn1cc(-c2csc(-c3cn(C)c4ccc(Br)cc34)n2)c2cccnc21  MDA-MB-435 melanoma      Satisfied
5  COc1cc(-c2nc3sccn3c2-c2ccnc(NCCNS(=O)(=O)c3ccccc3)n2)ccc1F  MDA-MB-435 melanoma  Not satisfied

###

- Test system: KM12 colon
- assay_details: NCI-60 one-dose screen, 48 h (100 = growth as untreated, 0 = no growth, -100 = all killed)
- conditions: 10 µM unless noted
This is part of a sample that, as a whole, favours compounds with a hit. Of some 83,000 tested, about 20% had one in any assay.
Record y whenever growth is at 60% or higher; record n when lower.

>>> print(df.to_string())
                                   compound  label
0  O=C1c2ccc3c4c5ccc(c24)C(=O)N1CCCOCCCCOCCCNCc1ccc(cc1)CNCCCOCCCCOCCCN(C3=O)C5=O      n
1  Cn1c(I)c(C#CCO[Si](C)(C)C(C)(C)C)c(=O)[nH]c1=O      y
2              Cc1ccc(Nc2cc(N)nc(N)n2)cc1Cl      y
3   COc1ccc(OC)c(/C=N/Nc2ncnc3c2c(C)nn3C)c1      y
4  COC(=O)CC[C@@H]1O[C@@H](c2cccc(C(F)(F)F)c2)[C@@H](O)[C@H]1O      y
5  Cc1nc2sc(C(=O)Nc3cccc4ccccc34)c(N)c2cc1C(O)c1ccccc1 (stereo not given)      n
6  CC(C)c1ccc(C(=O)Nc2nc3ccc(O)c(CN(C)C)c3s2)cc1      n
7          Cc1ccc(C)n1-c1ccccc1-n1c(C)ccc1C      y
8  N#CC1=C(c2ccccc2)Nc2c(c(-c3ccc(Cl)cc3)nn2-c2ccccc2)C12C(=O)Nc1ccc(Cl)cc12 (stereo not given)      y
9  CC/C(=C(/c1ccc(Cl)cc1)c1ccc(OCCN(C)C)cc1)c1ccc(Cl)cc1      n

###

- Test system: RPMI-8226 leukemia
- assay_details: NCI-60 one-dose screen, 48 h
- conditions: 10 µM unless noted
The panel holds about 83,000 compounds, 20% with a hit somewhere; the sample as a whole holds those more often. Calls of active or inactive are those of the source. How the source made its calls: active means growth percent below 10; inactive means the rest.
Outcome codes: active, inactive

compound	label
CCN(C)S(=O)(=O)Nc1cccc(Nc2ncnc3cc(NC(=O)CCl)ccc23)c1Cl	active
COc1ccc(C(=O)C/C(=C\c2ccc(Cl)cc2)C(=O)NCc2ccccc2)cc1	inactive
O=C(CSc1nc2ccc([N+](=O)[O-])cc2[nH]1)Nc1ccc([N+](=O)[O-])cc1	active
CN(C)CC1CCC(CN(C)C)C1=O (stereo not drawn)	inactive
Cc1ccc(C(=O)c2ccc(CC(=O)N/N=C/c3ccccc3O)n2C)cc1	inactive
NC(Cc1ccc(O)c([N+](=O)[O-])c1)C(=O)O (stereo not drawn)	inactive
COc1ccc(C/C(C)=C(/c2ccc(OCCN(C)C)cc2)c2ccc(OC(=O)NCc3ccccc3)cc2)cc1	inactive
COC(=O)c1nc(-c2ccccc2)oc1S(=O)(=O)Cc1ccccc1	inactive
COc1ccc(C(O)c2cc3c(N)c(C(=O)Nc4cccc(Br)c4)sc3nc2C)cc1 (stereo not drawn)	inactive
O=C(Nc1cccc(-c2ccc(N3CCOCC3)nn2)c1)Nc1cccc(C(F)(F)F)c1	inactive
CCOC(=O)C1=C(C)NC(=O)NC1c1c(Cl)n(CCCl)c2ccccc12 (stereo not drawn)	inactive
Fc1ccc(CNc2c3ccccc3nc3ccccc23)c(F)c1	inactive
CCOC(=O)c1nn(-c2ccc(S(N)(=O)=O)cc2)c2nc(C)cc(=O)n12	inactive
CN(/C(N)=N/N=C/c1c2ccccc2cc2ccccc12)C1CCCCC1	active
CCCCC1=C(P(=O)(O)O)N[C@H](C(=O)O)CS1	inactive
C#CCNC(=O)[C@H](CC)[C@H]1CC[C@H](C)[C@H]([C@@H](C)[C@H](O)[C@H](C)C(=O)[C@H](CC)C2O[C@]3(C=CC(=O)[C@]4(CC[C@@](C)([C@H]5CC[C@](O)(CC)[C@H](C)O5)O4)O3)[C@H](C)C[C@@H]2C)O1 (stereo partly drawn)	inactive
[O-]/[N+](=C\c1ccc(-n2cc(Cc3ccccc3Cc3cn(-c4ccc(/C=[N+](/[O-])c5ccccc5)cc4)nn3)nn2)cc1)c1ccccc1	inactive
Oc1c(Br)cc(Br)c2ccc(Cn3cc(-c4ccc(C(F)(F)F)cc4)nn3)nc12	active
COc1ccc2[nH]c(C(=O)N3CCN(C(=O)OCc4ccc5c(Cl)cc(Cl)c(O)c5n4)CC3)cc2c1	active
O=C(CSc1oc(-c2ccccc2)nc1S(=O)(=O)c1ccccc1)Nc1ccc(F)cc1	inactive
N#Cc1c(-c2ccc(Cl)cc2)c(C#N)c2c(C#N)c(N)nn2c1N	inactive
O=C1Nc2ccc(C(=O)O)cc2/C1=N/c1nnc(Sc2ccccc2)s1	inactive
CCOC(=O)c1c(NC(=O)c2cccc(C(F)(F)F)c2)sc2c(CN(C)C)c(O)ccc12	active
